These measurements were taken from paper PMC8119466.

molecules and their reported % Phosphatase Activity (compared to DMSO) PRL-1
SYSTEM NAME: recombinant PRL-1 (Homo sapiens)
Construct: 6xHis (N, cleaved yes); made in house; host or cells: E. coli One Shot BL21 Star
Sequence (Q93096 1-173): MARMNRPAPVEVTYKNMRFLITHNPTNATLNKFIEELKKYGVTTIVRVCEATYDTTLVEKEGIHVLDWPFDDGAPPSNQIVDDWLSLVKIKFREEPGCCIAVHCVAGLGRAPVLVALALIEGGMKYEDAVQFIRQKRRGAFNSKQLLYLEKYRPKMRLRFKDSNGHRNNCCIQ
METHOD: In vitro phosphatase assay (DiFMUP hydrolysis), PRL-1; also: test concentration or dose not given here
Assay type: biochemical
ASSAY CONTEXT: FDA-approved drug screen; compared to DMSO
Counter-ions that a name gives are not always drawn.
REPORTED ENDPOINT: % Phosphatase Activity (compared to DMSO) PRL-1 (%)

- MOLECULE: "CCCCOc1cc(C(=O)OCCN(CC)CC)ccc1N [Oxybuprocaine HCl]"
  OBSERVED: 97
- MOLECULE: "CC(CCc1ccc(O)cc1)NCC(O)c1ccc(O)cc1.Cl (racemic) [Ractopamine HCl]"
  OBSERVED: 103
- MOLECULE: "O=c1[nH]c(=O)n([C@H]2C[C@H](O)[C@@H](CO)O2)cc1I [Idoxuridine]"
  OBSERVED: 94
- MOLECULE: "Cc1cn(-c2cc(NC(=O)c3ccc(C)c(Nc4nccc(-c5cnccn5)n4)c3)cc(C(F)(F)F)c2)cn1 [Radotinib]"
  OBSERVED: 96
- MOLECULE: "C[N+]1(C)[C@@H]2CC[C@H]1C[C@@H](OC(=O)C(O)c1ccccc1)C2 (some centres unmarked) [Homatropine Methylbromide]"
  OBSERVED: 107
- MOLECULE: "CCN(CCCc1ccccc1)CCCc1ccccc1 [Alverine Citrate]"
  OBSERVED: 97
- MOLECULE: "O=C(NC1CCN(CCCCC2(C(=O)NCC(F)(F)F)c3ccccc3-c3ccccc32)CC1)c1ccccc1-c1ccc(C(F)(F)F)cc1 [Lomitapide Mesylate]"
  OBSERVED: 129
- MOLECULE: "CCCCOc1ccc(OCCCN2CCOCC2)cc1 [Pramoxine HCl]"
  OBSERVED: 82

----------
SYSTEM NAME: recombinant PRL-3 (Homo sapiens)
Construct: 6xHis (N, cleaved yes); made in house; host or cells: E. coli One Shot BL21 Star
Sequence (O75365 whole entry): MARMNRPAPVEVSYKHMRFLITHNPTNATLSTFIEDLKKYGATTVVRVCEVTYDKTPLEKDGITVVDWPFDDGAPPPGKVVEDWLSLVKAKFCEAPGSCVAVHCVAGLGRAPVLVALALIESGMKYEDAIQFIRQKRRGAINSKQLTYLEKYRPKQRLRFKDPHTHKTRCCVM
METHOD: In vitro phosphatase assay (DiFMUP hydrolysis), PRL-3; also: test concentration or dose not given here
Type: biochemical
Where a name gives a salt, the structure may show the parent alone.
REPORTED ENDPOINT: % Phosphatase Activity (compared to DMSO) PRL-3 (%)

- MOLECULE: "CS(=O)(=O)Nc1ccc([N+](=O)[O-])cc1Oc1ccccc1 [Nimesulide]"
  OBSERVED: 85
- MOLECULE: "Cc1cccc(C)c1OCC(C)N (centres unmarked) [Mexiletine HCl]"
  OBSERVED: 78
- MOLECULE: "Cc1cccc([C@H](C)c2cnc[nH]2)c1C"
  OBSERVED: 94
- MOLECULE: "CCc1cnn2c(NCc3ccc[n+]([O-])c3)cc(N3CCCC[C@H]3CCO)nc12 [Dinaciclib (SCH727965)]"
  OBSERVED: 87
- MOLECULE: "C[C@]12CC[C@H]3[C@@H](CCC4=CC(=O)CC[C@@H]43)[C@@H]1CC[C@@H]2O"
  OBSERVED: 78
